TARGET DESC: Glucose-dependent insulinotropic receptor (Homo sapiens)
Sequence (Q8TDV5 whole entry): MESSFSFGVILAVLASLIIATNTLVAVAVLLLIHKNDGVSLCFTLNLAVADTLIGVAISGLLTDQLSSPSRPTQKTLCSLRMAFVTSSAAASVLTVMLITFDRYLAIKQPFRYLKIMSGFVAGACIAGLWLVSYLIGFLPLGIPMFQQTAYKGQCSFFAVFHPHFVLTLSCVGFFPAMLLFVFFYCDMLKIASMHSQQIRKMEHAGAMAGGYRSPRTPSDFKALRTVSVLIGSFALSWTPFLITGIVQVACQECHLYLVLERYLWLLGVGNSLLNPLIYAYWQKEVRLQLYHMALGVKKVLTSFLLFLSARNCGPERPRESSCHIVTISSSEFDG
METHOD: Agonist activity at human GPR119 transfected in CHO cells assessed as cAMP accumulation after 2 hrs by luciferase reporter gene assay
Hi all, reminder that labels come from EC50, split as category 1 = under 20 nM, category 2 = from 20 nM up to 500 nM, category 3 = 500 nM and over

CC(C)(C)OC(=O)N1CCC(CCOC(=O)N2CCc3cc(S(C)(=O)=O)cc(Cl)c32)CC1 = category 2
CC(C)(C)OC(=O)N1CCC(n2ccc3c(N4CCc5cc(S(C)(=O)=O)ccc54)ncnc32)CC1 = category 1
COc1cc2c(cc1S(C)(=O)=O)CCN2C(=O)OCCC1CCN(C(=O)OC(C)(C)C)CC1 = category 3
CCc1cnc(N2CCC(Oc3cc(N4CCc5cc(S(C)(=O)=O)ccc54)ncn3)CC2)nc1 = category 1
CC(C)(C)OC(=O)N1CCC(CCOC(=O)N2CCc3cc(S(C)(=O)=O)ccc32)CC1 = category 2
CCc1cnc(N2CCC(C(C)COC(=O)N3CCc4cc(S(C)(=O)=O)cc(F)c43)CC2)nc1 (racemic) = category 1

For CC(C)(C)OC(=O)N1CCC(CCCC(=O)N2CCc3cc(S(C)(=O)=O)ccc32)CC1 , which EC50 bin applies?
category 2

Which class does COc1cc(S(C)(=O)=O)cc2c1N(C(=O)OCCC1CCN(C(=O)OC(C)(C)C)CC1)CC2 fall in?
category 3

Which category does the recorded EC50 put Cc1c(S(C)(=O)=O)ccc2c1CCN2C(=O)OCCC1CCN(C(=O)OC(C)(C)C)CC1 in?
category 3

Form: Item = CC(C)OC(=O)N1CCC(Oc2ccnc(N3CCc4cc(S(C)(=O)=O)ccc43)n2)CC1 ; Class = ?
category 3
